Entries and their Inhibition values follow.
- Tested on: HepG2
- Assay notes: GSK_TCMDC: Percent inhibition of human HepG2 cell line. Test compounds present at 10uM.
- Type: functional
Property measured: Inhibition (%)

• CN(CCC(O)c1ccc(Cl)c(Cl)c1)CC1CC1C(=O)c1ccccc1 (stereo not given) = 11
• CN1CCN(CCCN(Cc2cccc(-c3ccc(CNC4CCCC4)cc3)c2)C(=O)CCC2CCCC2)CC1.O=C(O)C(F)(F)F = 16
• Cl.N=c1n(Cc2ccc(Cl)cc2)c2ccccc2n1CC(O)c1ccc(Cl)c(Cl)c1 (stereo not given) = 58
• CN1CCC(NCc2cccc(-c3cnc(NCc4ccccc4)nc3)c2)CC1.O=C(O)C(F)(F)F = 12
• CCCCOc1cc2c(cc1OCC)C(C=Cc1ccc(Cl)cc1Cl)=NCC2.Cl = 0
• CCOC(=O)N1CCN(CCCNc2c3ccc(Cl)cc3nc3ccc(OC)cc23)CC1 = 52
• CCc1ccc(CN(Cc2ccc(C)cc2)Cc2ccc(NC(C)=O)cc2)cc1 = 6
• COc1ccc2c(NN=CC=Cc3ccccc3)ccnc2c1 = 9
• O=C(CCCCCNC(=O)c1ccc(O)c(-c2ccc(Cl)c(Cl)c2)c1)NC1CCCCCC1 = 0
• c1ccc(Nc2nc(-c3ccccn3)cs2)nc1 = 45

###

- Tested on: HepG2
- Assay notes: GSK_TCMDC: Percent inhibition of human HepG2 cell line. Test compounds present at 10uM.
- Type: functional
Property measured: Inhibition (%)

* Cc1cc2c(cc1C(F)(F)F)N(C(=O)Nc1ccc(C(=O)NC3CCN(Cc4ccccc4)C3)cc1)CC2 (configuration not stated) | 19
* CN1CCN(Cc2ccc(-c3ccc4c(Nc5ccc(Cl)cc5F)ccnc4c3)o2)CC1 | 47
* N#Cc1c(N)n(CCc2ccc(F)cc2)c2nc3ccccc3nc12 | 8
* CC(=O)c1nccc(C)c1N | 10
* Cc1cc(N[C@@H](Cc2ccccc2)C(=O)NC2CCCC2)nc(NCCOc2ccccc2)n1.O=C(O)C(F)(F)F | 40
* COc1cc2ccccc2cc1OCCCN1CCN(CC(c2ccc(F)cc2)N2CCN(C(C)C)CC2)CC1.Cl (configuration not stated) | 72
* COc1c(OC)c(OC)c2ccccc2c1CCNCCCCNCCc1c(OC)c(OC)c(OC)c2ccccc12.CS(=O)(=O)O | 100
* COc1cc2nc(N3CCC(CNC(=O)c4ccc(-c5ccc(C(=O)N(C)C)cc5)cc4)CC3)nc(N)c2cc1OC | 20
* CS(=O)(=O)N1CC2(CCN(CCC(NC(=O)/C=C/c3ccccc3)c3ccc(Cl)c(Cl)c3)CC2)c2ccccc21 (configuration not stated) | 18
* Clc1ccc2c(NCc3ccccc3)ccnc2c1 | 40
* Cc1cc(=O)[nH]c(-n2nc(C)cc2NC(=O)C(c2ccccc2)c2ccccc2)n1 | 31
* Br.Cc1ccc(OCCCCON2C(=N)N=C(N)NC2(C)C)cc1C | 61
* O=C(C=Cc1ccc(Cl)c(Cl)c1)NCCCCCN1CCC(CCCNC(=O)c2ccc3c(c2)OCO3)CC1 | 38
* COc1cc2nc(C)nc(Nc3ccc(Cc4ccccc4)cc3)c2cc1OC.Cl | 16
* CCC(NC(=O)c1ccccc1NC(=O)c1ccc(C)cc1)C(=O)OC (configuration not stated) | 0
* Cl.N#Cc1ccc2c(c1)CCN(CCC1CCC(NC(=O)/C=C/c3ccc(F)c4ccccc34)CC1)CC2 (configuration not stated) | 29
* COc1ccc(CN2CCN(C(=O)c3cccs3)CC2)c(O)c1 | 7
* S=C(NCCCCCN1CCC(c2c[nH]c3ccccc23)CC1)Nc1cccc(I)c1 | 69
* Cl.O=C(/C=C/c1ccc(F)cc1)NC1CCC(CCN2CCc3ccccc3CC2)CC1 (configuration not stated) | 27
* COc1nc2c(N3CCN(CCNCc4ccc5c(n4)NC(=O)CS5)CC3)ccnc2cc1F | 18
* O=c1cc(NCCCNCc2cc(Cl)cc(Cl)c2OCc2ccccc2)[nH]c2ccccc12 | 0
* C/C(=C\C(=O)NC1CC1)c1ccccc1OCc1ccccc1 | 3
* CC(C)CN1C(=O)c2ccc(C(=O)Nc3nccs3)cc2C1=O | 3
* COc1ccc(CN2CCCN(Cc3cccc(NC(=O)c4ccc(-c5ccccc5)cc4)c3)CC2)cc1.O=C(O)C(F)(F)F | 37
* Cl.NC1=NC2(CCCC2)C(c2ccc(Cl)c(Cl)c2)C(N)=N1 (configuration not stated) | 7
* CN(c1ccc(NC(=O)Nc2cc(C(F)(F)F)ccc2F)cc1)c1ccnc(NCCN2CCOCC2)n1.O=C(O)C(F)(F)F | 67
* C(=N\Nc1nccc2sc(-c3cccnc3)cc12)/c1ccncc1 | 65
* O=C(Cn1nc(Br)nc1[N+](=O)[O-])NCC1CCCCC1 | 0
* CC(C)(CN1CCCC1)CN(Cc1ccc(-c2ccc(C(F)(F)F)cc2)cc1)C(=O)Cn1c(CCc2cccc(F)c2F)nc(=O)c2ccccc21.O=C(O)C(O)C(O)C(=O)O | 57
* CNC(=O)Cc1ccc(C(=O)Nc2cccc(-c3cccc(-c4nc5cccc(C)c5[nH]4)c3)c2)cc1 | 15
* Cl.c1ccc2c(NCCCCCCCCNc3ccnc4ccccc34)ccnc2c1 | 57
* CCCN1CCN(c2cc(S(=O)(=O)Nc3ccc(C(=O)NCc4cccc(C(F)(F)F)c4)cc3)ccc2OC)CC1.O=C(O)C(F)(F)F | 27
* CCNc1cc(C(=O)N[C@@H](Cc2ccccc2)[C@H](O)CN[C@@H](C)c2ccccc2)cc(N2CCCC2=O)c1 | 7
* COc1cc(CNc2ccc(N3CCCC3)cc2)cc(Cl)c1OC | 41
* Cc1occc1C(=O)Nc1nc(-c2ccccn2)nc2ccsc12 | 68
* C[C@H](Cc1ccc(CCc2ccc(C[C@@H](C)NC[C@H](O)c3cccc(Cl)c3)cc2)cc1)NC[C@H](O)c1cccc(Cl)c1.Cl | 100
* O=C(Nc1ccc2[nH]c(-c3ccccc3)nc2c1)c1cc(-c2ccc3c(c2)OCCO3)n[nH]1.O=C(O)C(F)(F)F | 58

Provenance of the data: ChEMBL document CHEMBL1157539
